Sodium-dependent noradrenaline transporter (Homo sapiens, UniProt P23975) IC50 data
Sequence (P23975 whole entry): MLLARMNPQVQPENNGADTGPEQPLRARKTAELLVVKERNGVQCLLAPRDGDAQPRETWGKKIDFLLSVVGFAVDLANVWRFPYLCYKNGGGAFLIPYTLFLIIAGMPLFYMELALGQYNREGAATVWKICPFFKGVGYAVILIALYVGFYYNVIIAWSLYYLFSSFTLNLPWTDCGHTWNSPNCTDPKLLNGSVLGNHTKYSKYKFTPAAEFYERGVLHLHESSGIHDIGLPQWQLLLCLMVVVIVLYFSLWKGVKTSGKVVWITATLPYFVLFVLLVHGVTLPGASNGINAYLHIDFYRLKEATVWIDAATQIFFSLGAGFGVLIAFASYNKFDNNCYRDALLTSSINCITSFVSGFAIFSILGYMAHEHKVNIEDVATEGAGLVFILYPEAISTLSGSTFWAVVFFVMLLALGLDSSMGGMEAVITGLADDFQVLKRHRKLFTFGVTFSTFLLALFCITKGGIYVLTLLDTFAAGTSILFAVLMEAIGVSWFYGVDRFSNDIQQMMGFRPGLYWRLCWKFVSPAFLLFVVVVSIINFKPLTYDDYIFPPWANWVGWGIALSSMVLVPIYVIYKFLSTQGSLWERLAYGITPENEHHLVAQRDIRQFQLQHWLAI
Give your result as the value with the unit written after it.

Compound	Measured target	IC50
CN1C2CCC1C1COC(=O)CCCCCCCCCCC(=O)Nc3ccc(cc3)C1C2 (stereo not drawn)	Sodium-dependent noradrenaline transporter (Homo sapiens, UniProt P23975)	2.32 µM
CN1C2CCC1C1COC(=O)CCC(=O)CCC(=O)Nc3ccc(cc3)C1C2 (stereo not drawn)	Sodium-dependent noradrenaline transporter (Homo sapiens, UniProt P23975)	1.4 µM
CN1C2CCC1C1COC(=O)CCCCCCCCC(=O)Nc3ccc(cc3)C1C2 (stereo not drawn)	Sodium-dependent noradrenaline transporter (Homo sapiens, UniProt P23975)	2.8 µM
CN1CCCCCCCCCC(=O)OCC2C(CC3CCC2N3C)c2ccc1cc2 (stereo not drawn)	Sodium-dependent noradrenaline transporter (Homo sapiens, UniProt P23975)	2.13 µM
CN1C2CCC1C1COC(=O)CCC3(CCC(=O)Nc4ccc(cc4)C1C2)c1ccccc1-c1ccccc13 (stereo not drawn)	Sodium-dependent noradrenaline transporter (Homo sapiens, UniProt P23975)	0.98 µM

Case CN1C2CCC1C1COC(=O)CCCCCCC(=O)Nc3ccc(cc3)C1C2 (stereo not drawn) , Sodium-dependent noradrenaline transporter (Homo sapiens, UniProt P23975), IC50 recorded as 3.04 µM

Case CN1C2CCC1C1COC(=O)CCCCCC(=O)Nc3ccc(cc3)C1C2 (stereo not drawn) , Sodium-dependent noradrenaline transporter (Homo sapiens, UniProt P23975), IC50 recorded as 0.04 µM

Case CN1C2CCC1C1COC(=O)CCSCCC(=O)Nc3ccc(cc3)C1C2 (stereo not drawn) , Sodium-dependent noradrenaline transporter (Homo sapiens, UniProt P23975), IC50 recorded as 0.99 µM

* * *

Sodium-dependent serotonin transporter (Homo sapiens) IC50 data

Here are 4 compounds together with their reported answers.
Compound	IC50
CN1C2CCC1C1COC(=O)CCCCCC(=O)Nc3ccc(cc3)C1C2 (stereo not given)	200 nM
CN1C2CCC1C1COC(=O)CCCCCCCCCCC(=O)Nc3ccc(cc3)C1C2 (stereo not given)	1200 nM
CN1C2CCC1C1COC(=O)CCCCCCC(=O)Nc3ccc(cc3)C1C2 (stereo not given)	2090 nM
CN1CCCCCCCCCCCC(=O)OCC2C(CC3CCC2N3C)c2ccc1cc2 (stereo not given)	450 nM

We next turn to a different compound, shown below.
Case CN1C2CCC1C1COC(=O)CCC(=O)CCC(=O)Nc3ccc(cc3)C1C2 (stereo not given) , Sodium-dependent serotonin transporter (Homo sapiens), IC50 recorded as 5010 nM

* * *

Sodium-dependent serotonin transporter (Homo sapiens, UniProt P31645) IC50 data
Sequence (P31645 whole entry): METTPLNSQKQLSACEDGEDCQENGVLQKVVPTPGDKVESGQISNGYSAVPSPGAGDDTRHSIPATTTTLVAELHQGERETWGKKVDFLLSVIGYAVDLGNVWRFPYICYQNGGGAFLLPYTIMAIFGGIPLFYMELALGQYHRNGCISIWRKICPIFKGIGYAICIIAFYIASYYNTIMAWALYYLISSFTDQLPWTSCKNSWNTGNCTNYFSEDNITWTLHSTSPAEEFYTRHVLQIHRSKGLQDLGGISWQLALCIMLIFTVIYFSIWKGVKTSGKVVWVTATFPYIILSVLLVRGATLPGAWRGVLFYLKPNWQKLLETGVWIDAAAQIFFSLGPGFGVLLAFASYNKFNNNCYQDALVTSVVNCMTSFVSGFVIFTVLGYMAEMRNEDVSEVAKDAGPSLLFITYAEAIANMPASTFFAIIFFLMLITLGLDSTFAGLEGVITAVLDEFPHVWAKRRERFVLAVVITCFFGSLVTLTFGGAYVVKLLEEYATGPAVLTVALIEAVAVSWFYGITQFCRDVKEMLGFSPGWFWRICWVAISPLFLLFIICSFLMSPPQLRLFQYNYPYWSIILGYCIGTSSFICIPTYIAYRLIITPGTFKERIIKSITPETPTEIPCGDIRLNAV
Unit nM implied. Number only.

Here are 2 molecules together with their reported answers.
Molecule	Measured target	Units symbol	IC50
CN1C2CCC1C1COC(=O)CCSCCC(=O)Nc3ccc(cc3)C1C2 (stereo not given)	Sodium-dependent serotonin transporter (Homo sapiens, UniProt P31645)	nM	6730
CN1CCCCCCCCCC(=O)OCC2C(CC3CCC2N3C)c2ccc1cc2 (stereo not given)	Sodium-dependent serotonin transporter (Homo sapiens, UniProt P31645)	nM	380

We next turn to a different molecule, shown below.
The reported IC50 of the molecule CN1C2CCC1C1COC(=O)CCCCCCCCC(=O)Nc3ccc(cc3)C1C2 (stereo not given) was 7.8

* * *

UniProtKB P31645 Ki data
Unit nM implied. Number only.

Here are 6 molecules together with their reported answers.
Molecule	Ki / nM
CN1CCCCCCCCCCCC(=O)OCC2C(CC3CCC2N3C)c2ccc1cc2 (stereo unspecified)	110
CN1CCCCCCCCCC(=O)OCC2C(CC3CCC2N3C)c2ccc1cc2 (stereo unspecified)	94
CN1C2CCC1C1COC(=O)CCSCCC(=O)Nc3ccc(cc3)C1C2 (stereo unspecified)	1650
CN1C2CCC1C1COC(=O)CCCCCCCCC(=O)Nc3ccc(cc3)C1C2 (stereo unspecified)	1.9
CN1C2CCC1C1COC(=O)CCC(=O)CCC(=O)Nc3ccc(cc3)C1C2 (stereo unspecified)	1230
CN1C2CCC1C1COC(=O)CCCCCCC(=O)Nc3ccc(cc3)C1C2 (stereo unspecified)	513

The reported Ki of the molecule CN1C2CCC1C1COC(=O)CCCCCCCCCCC(=O)Nc3ccc(cc3)C1C2 (stereo unspecified) was 290

The reported Ki of the molecule CN1C2CCC1C1COC(=O)CCCCCC(=O)Nc3ccc(cc3)C1C2 (stereo unspecified) was 50

* * *

Sodium-dependent serotonin transporter (Homo sapiens) pKi data
pKi: −log10 of the molar value.

Here are 2 compounds together with their reported answers.
Compound	pKi
CN1C2CCC1C1COC(=O)Cc3ccc(cc3)CC(=O)Nc3ccc(cc3)C1C2 (stereo not drawn)	< 5.70
CN1C2CCC1C1COC(=O)CCCCCCCC(=O)Nc3ccc(cc3)C1C2 (stereo not drawn)	< 5.70

We next turn to a different compound, shown below.
Case CN1C(=O)CCCCCCCCC(=O)OCC2C(CC3CCC2N3C)c2ccc1cc2 (stereo not drawn) , Sodium-dependent serotonin transporter (Homo sapiens), pKi recorded as < 5.70
